The reported measurements were obtained from paper PMC6544338.

Measured on: AChE (Electrophorus electricus, UniProt O42275)
Construct: purchased Sigma (St. Louis, MO, USA)
Sequence (O42275 24-633): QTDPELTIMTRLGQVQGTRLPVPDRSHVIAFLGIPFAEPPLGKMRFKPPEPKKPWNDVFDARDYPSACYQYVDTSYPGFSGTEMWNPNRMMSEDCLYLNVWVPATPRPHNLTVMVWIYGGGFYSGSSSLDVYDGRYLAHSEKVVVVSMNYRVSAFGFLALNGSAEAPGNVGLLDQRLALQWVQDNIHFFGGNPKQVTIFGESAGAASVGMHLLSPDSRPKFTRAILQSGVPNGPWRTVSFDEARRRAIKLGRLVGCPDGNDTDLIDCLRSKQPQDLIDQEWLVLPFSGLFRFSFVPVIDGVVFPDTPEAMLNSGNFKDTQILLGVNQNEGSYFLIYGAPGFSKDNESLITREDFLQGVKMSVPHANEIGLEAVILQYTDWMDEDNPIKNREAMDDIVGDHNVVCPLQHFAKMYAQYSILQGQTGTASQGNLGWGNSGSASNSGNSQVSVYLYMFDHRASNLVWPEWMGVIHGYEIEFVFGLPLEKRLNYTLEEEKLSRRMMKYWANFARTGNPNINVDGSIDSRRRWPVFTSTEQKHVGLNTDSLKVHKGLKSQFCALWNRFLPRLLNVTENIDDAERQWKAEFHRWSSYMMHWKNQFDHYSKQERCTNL
Test summary: Far-UV circular dichroism of AChE with small molecules (secondary structure composition)
Study conditions: single molecule; AChE alone 3.6±0.012
Where a name gives a salt, the structure may show the parent alone.
Known α helix of AChE in presence of the molecule of a selection of compounds
Answer in %, number only, no unit symbol.

Solved entries:
Compound | Observed result
O[C@H]1[C@H]2c3cc4c(cc3CN3CCC(=C[C@@H]1O)[C@H]23)OCO4 [Lycorine hydrochloride, lycorine hydrochloride] | 7.2
CC(/C=C/C=C(\C)C(=O)O[C@@H]1O[C@H](CO[C@@H]2O[C@H](CO)[C@@H](O)[C@H](O)[C@H]2O)[C@@H](O)[C@H](O)[C@H]1O)=C\C=C\C=C(C)\C=C\C=C(/C)C(=O)O[C@@H]1O[C@H](CO[C@@H]2O[C@H](CO)[C@@H](O)[C@H](O)[C@H]2O)[C@@H](O)[C@H](O)[C@H]1O | 5.7
CC(=O)SCC[N+](C)(C)C.[I-] [ATCI, acetylthiocholine iodide, reference compound] | 5.9
O.Oc1cc(O)c2c(c1)O[C@H](c1ccc(O)c(O)c1)[C@@H](O)C2 [Catechin hydrate, catechin hydrate] | 10

Look at this compound and give its reported α helix of AChE in presence of the molecule. O=c1c(O)c(-c2ccc(O)c(O)c2)oc2cc(O)cc(O)c12
3.1

Look at this compound and give its reported α helix of AChE in presence of the molecule. Oc1cccc(O)c1O
0

Look at this compound and give its reported α helix of AChE in presence of the molecule. C[C@@H]1O[C@@H](OC[C@H]2O[C@@H](Oc3c(-c4ccc(O)c(O)c4)oc4cc(O)cc(O)c4c3=O)[C@H](O)[C@@H](O)[C@@H]2O)[C@H](O)[C@H](O)[C@H]1O [Rutin hydrate, rutin hydrate]
8.8

Look at this compound and give its reported α helix of AChE in presence of the molecule. C[N+](C)(C)CCOC(N)=O [Carbachol, carbachol, reference compound]
4.0

###

Measured on: AChE (Electrophorus electricus, UniProt O42275)
Construct: purchased Sigma (St. Louis, MO, USA)
Test summary: Fluorescence spectral studies of AChE incubated with molecules
Study conditions: excitation 365 nm, control emission maxima […] nm, molecules at IC50 concentration, 10 min
Experimental readout: change in fluorescence emission of AChE compared to control enzyme

Compound | Measured on | Observed result
O=c1c(O)c(-c2ccc(O)c(O)c2)oc2cc(O)cc(O)c12 | AChE (Electrophorus electricus, UniProt O42275) | redshift
C[C@@H]1O[C@@H](OC[C@H]2O[C@@H](Oc3c(-c4ccc(O)c(O)c4)oc4cc(O)cc(O)c4c3=O)[C@H](O)[C@@H](O)[C@@H]2O)[C@H](O)[C@H](O)[C@H]1O [Rutin hydrate, rutin hydrate] | AChE (Electrophorus electricus, UniProt O42275) | redshift

###

Measured on: immobilized AChE (Electrophorus electricus, UniProt O42275)
Construct: purchased Sigma (St. Louis, MO, USA)
Sequence (O42275 24-633): as above
Test summary: biochemical
Format: binding
Where a name gives a salt, the structure may show the parent alone.
Known Kd2 of a selection of compounds

Compound | Kd2
Oc1cccc(O)c1O | 0.002793±3.2×10^−5 1/s
O[C@H]1[C@H]2c3cc4c(cc3CN3CCC(=C[C@@H]1O)[C@H]23)OCO4 [Lycorine hydrochloride, lycorine hydrochloride] | 0.02658 ± 0.0061 s⁻¹
CC(/C=C/C=C(\C)C(=O)O[C@@H]1O[C@H](CO[C@@H]2O[C@H](CO)[C@@H](O)[C@H](O)[C@H]2O)[C@@H](O)[C@H](O)[C@H]1O)=C\C=C\C=C(C)\C=C\C=C(/C)C(=O)O[C@@H]1O[C@H](CO[C@@H]2O[C@H](CO)[C@@H](O)[C@H](O)[C@H]2O)[C@@H](O)[C@H](O)[C@H]1O | 0.005325±1.5×10^−4 1/s

Look at this compound and give its reported Kd2. O.Oc1cc(O)c2c(c1)O[C@H](c1ccc(O)c(O)c1)[C@@H](O)C2 [Catechin hydrate, catechin hydrate]
0.004173±1.1×10^−4 1/s

Look at this compound and give its reported Kd2. C[N+](C)(C)CCOC(N)=O [Carbachol, carbachol, reference compound]
0.001298±1.1×10^−4 1/s

Look at this compound and give its reported Kd2. C[C@@H]1O[C@@H](OC[C@H]2O[C@@H](Oc3c(-c4ccc(O)c(O)c4)oc4cc(O)cc(O)c4c3=O)[C@H](O)[C@@H](O)[C@@H]2O)[C@H](O)[C@H](O)[C@H]1O [Rutin hydrate, rutin hydrate]
0.002058±1.6×10^−4 1/s

Look at this compound and give its reported Kd2. O=c1c(O)c(-c2ccc(O)c(O)c2)oc2cc(O)cc(O)c12
0.004964±2.1×10^−4 1/s
